Tested on: C. difficile
experimental details: agar dilution MIC assay of anaerobic bacteria
Assay type: cell-based, Clostridium difficile
condition label: Clostridioides difficile, C. diff., Strain no. 3586, Table 3; read-out: MIC
property label: MIC (µg/mL)
Provide the reading as a plain figure in µg/mL.

// below: answered compounds
Cl.O=c1cc(NCc2ccc(Cl)c(Cl)c2)[nH]c(=O)n1CCOCCN1CCOCC1 [Compound 240D]
8
O=c1[nH]c(NCc2ccc(Cl)c(Cl)c2)nc2ncn(CCOCCN3CCOCC3)c12 [Compound 360A]
4
O=c1[nH]c(NCc2ccc(Cl)c(Cl)c2)nc2ncn(CCCCCN3CCOCC3)c12 [Compound 359E]
2

*Q* Field request: MIC | item: Cc1ncc([N+](=O)[O-])n1CCO [metronidazole, reference compound]
*A* 0.12

* * *

Tested on: Bi. longum
experimental details: agar dilution MIC assay of anaerobic bacteria
Type: cell-based, Bifidobacterium longum
condition label: Bifidobacterium longum; Bi. longum, Micromyx Number 3968, Table 1; read-out: MIC
Some compounds, each annotated with its measured MIC.

The cases that follow already have their MIC on record.
CC(C)C(=O)OCCCCCn1cnc2nc(NCc3ccc(Cl)c(Cl)c3)[nH]c(=O)c21 [Compound 332E]
> 32 µg/mL
CCc1cc(Nc2nc3ncn(CCCCCOC)c3c(=O)[nH]2)ccc1C [Compound 315C]
> 32 µg/mL
CN[C@H](CC(C)C)C(=O)N[C@H]1C(=O)N[C@@H](CC(N)=O)C(=O)N[C@H]2C(=O)N[C@H]3C(=O)N[C@H](C(=O)N[C@H](C(=O)O)c4cc(O)cc(O)c4-c4cc3ccc4O)[C@H](O)c3ccc(c(Cl)c3)Oc3cc2cc(c3O[C@@H]2O[C@H](CO)[C@@H](O)[C@H](O)[C@H]2O[C@H]2C[C@](C)(N)[C@H](O)[C@H](C)O2)Oc2ccc(cc2Cl)[C@H]1O [vancomycin, reference compound]
0.5 µg/mL

*Q* Return MIC measured with Bi. longum given this compound: CCc1cc(Nc2cc(=O)n(CCCCO)c(=O)[nH]2)ccc1C [Compound 179E]
*A* > 32 µg/mL

*Q* Provide the documented MIC with Bi. longum as the system for Cc1ncc([N+](=O)[O-])n1CCO [metronidazole, reference compound]
*A* 4 µg/mL

*Q* Form field: MIC recorded for CCC[C@@H]1C[C@@H](C(=O)N[C@@H]([C@H]2O[C@H](SC)[C@H](O)[C@@H](O)[C@H]2O)[C@H](C)Cl)N(C)C1 [clindamycin, reference compound] with Bi. longum (enter value)
*A* ≤ 0.03 µg/mL

* * *

System: C. difficile
experimental details: agar dilution MIC assay of anaerobic bacteria
Assay type: cell-based, Clostridium difficile
condition label: Clostridioides difficile, C. diff., Micromyx Number 3579, Table 2; read-out: MIC
property label: MIC (µg/mL)
Value expressed in µg/mL; do not type the unit.

CCOCCn1cnc2nc(NCc3ccc(Cl)c(Cl)c3)[nH]c(=O)c21 [Compound 325E]
2
Cc1ncc([N+](=O)[O-])n1CCO [metronidazole, reference compound]
0.5
CN[C@H](CC(C)C)C(=O)N[C@H]1C(=O)N[C@@H](CC(N)=O)C(=O)N[C@H]2C(=O)N[C@H]3C(=O)N[C@H](C(=O)N[C@H](C(=O)O)c4cc(O)cc(O)c4-c4cc3ccc4O)[C@H](O)c3ccc(c(Cl)c3)Oc3cc2cc(c3O[C@@H]2O[C@H](CO)[C@@H](O)[C@H](O)[C@H]2O[C@H]2C[C@](C)(N)[C@H](O)[C@H](C)O2)Oc2ccc(cc2Cl)[C@H]1O [vancomycin, reference compound]
1
O=c1[nH]c(NCc2ccc(Cl)c(Cl)c2)nc2ncn(CCCCCN3CCOCC3)c12 [Compound 359E]
2

Consider now this further compound.
*Q* Any idea what MIC was measured for CC(C)C(=O)OCCCCCn1cnc2nc(NCc3ccc(Cl)c(Cl)c3)[nH]c(=O)c21 [Compound 332E] ?
*A* 4

* * *

Let's look at some compounds and their measured MIC.
System: C. difficile
experimental details: agar dilution MIC assay of anaerobic bacteria
Type: cell-based, Clostridium difficile
condition label: Clostridioides difficile, C. difficile, Micromyx Number 3585, Table 1; read-out: MIC
Kindly provide the numeric value in µg/mL only, without the unit symbol.

CC(C)C(=O)OCCCCCn1cnc2nc(NCc3ccc(Cl)c(Cl)c3)[nH]c(=O)c21 [Compound 332E]
4
Cc1ncc([N+](=O)[O-])n1CCO [metronidazole, reference compound]
0.5

*Q* I'd like to know its MIC. The compound in question is CCC[C@@H]1C[C@@H](C(=O)N[C@@H]([C@H]2O[C@H](SC)[C@H](O)[C@@H](O)[C@H]2O)[C@H](C)Cl)N(C)C1 [clindamycin, reference compound]
*A* 8

* * *

Reported MIC by item:
Test system: C. difficile
experimental details: agar dilution MIC assay of anaerobic bacteria
Format: cell-based, Clostridium difficile
condition label: Clostridioides difficile, C. difficile, Micromyx Number 3586, Table 1; read-out: MIC
Just the number plus its unit, please.

CN[C@H](CC(C)C)C(=O)N[C@H]1C(=O)N[C@@H](CC(N)=O)C(=O)N[C@H]2C(=O)N[C@H]3C(=O)N[C@H](C(=O)N[C@H](C(=O)O)c4cc(O)cc(O)c4-c4cc3ccc4O)[C@H](O)c3ccc(c(Cl)c3)Oc3cc2cc(c3O[C@@H]2O[C@H](CO)[C@@H](O)[C@H](O)[C@H]2O[C@H]2C[C@](C)(N)[C@H](O)[C@H](C)O2)Oc2ccc(cc2Cl)[C@H]1O [vancomycin, reference compound]
0.5 µg/mL

Could you now look at the following compound, please?
*Q* MIC for CCC[C@@H]1C[C@@H](C(=O)N[C@@H]([C@H]2O[C@H](SC)[C@H](O)[C@@H](O)[C@H]2O)[C@H](C)Cl)N(C)C1 [clindamycin, reference compound] ?
*A* 8 µg/mL

* * *

Test system: C. difficile
experimental details: agar dilution MIC assay of anaerobic bacteria
Format: cell-based, Clostridium difficile
condition label: Clostridioides difficile, C. difficile, Micromyx Number 3588, Table 1; read-out: MIC
property label: MIC
Please don't drop the unit; write it after the number.

Cc1ncc([N+](=O)[O-])n1CCO [metronidazole, reference compound]
0.5 µg/mL

*Q* Give the measured MIC of CN[C@H](CC(C)C)C(=O)N[C@H]1C(=O)N[C@@H](CC(N)=O)C(=O)N[C@H]2C(=O)N[C@H]3C(=O)N[C@H](C(=O)N[C@H](C(=O)O)c4cc(O)cc(O)c4-c4cc3ccc4O)[C@H](O)c3ccc(c(Cl)c3)Oc3cc2cc(c3O[C@@H]2O[C@H](CO)[C@@H](O)[C@H](O)[C@H]2O[C@H]2C[C@](C)(N)[C@H](O)[C@H](C)O2)Oc2ccc(cc2Cl)[C@H]1O [vancomycin, reference compound] .
*A* 2 µg/mL

*Q* Quick check: MIC of CCc1cc(Nc2nc3ncn(CCCCCOC)c3c(=O)[nH]2)ccc1C [Compound 315C] ?
*A* 4 µg/mL

*Q* What value of measured MIC is listed for CCc1cc(Nc2cc(=O)n(CCCCO)c(=O)[nH]2)ccc1C [Compound 179E] ?
*A* 1 µg/mL

*Q* GET /values?readout=MIC&item= CC(C)C(=O)OCCCCCn1cnc2nc(NCc3ccc(Cl)c(Cl)c3)[nH]c(=O)c21 [Compound 332E]
*A* 1 µg/mL

*Q* Suppose we examine the molecule CCC[C@@H]1C[C@@H](C(=O)N[C@@H]([C@H]2O[C@H](SC)[C@H](O)[C@@H](O)[C@H]2O)[C@H](C)Cl)N(C)C1 [clindamycin, reference compound] ; what MIC value has been reported?
*A* 8 µg/mL

* * *

Tested on: C. difficile
experimental details: agar dilution MIC assay of anaerobic bacteria
Type: cell-based, Clostridium difficile
condition label: Clostridioides difficile, C. diff. Strain no. 19369, Table 4; read-out: MIC
Item-by-item account of MIC
Output spec: scalar in µg/mL, unitless text.

Study these solved cases before continuing.
CN[C@H](CC(C)C)C(=O)N[C@H]1C(=O)N[C@@H](CC(N)=O)C(=O)N[C@H]2C(=O)N[C@H]3C(=O)N[C@H](C(=O)N[C@H](C(=O)O)c4cc(O)cc(O)c4-c4cc3ccc4O)[C@H](O)c3ccc(c(Cl)c3)Oc3cc2cc(c3O[C@@H]2O[C@H](CO)[C@@H](O)[C@H](O)[C@H]2O[C@H]2C[C@](C)(N)[C@H](O)[C@H](C)O2)Oc2ccc(cc2Cl)[C@H]1O [vancomycin, reference compound]
1
Cc1ncc([N+](=O)[O-])n1CCO [metronidazole, reference compound]
0.5
O=c1[nH]c(NCc2ccc(Cl)c(Cl)c2)nc2ncn(CCCCN3CCOCC3)c12 [Compound 258D]
16

We next turn to a different compound, shown below.
*Q* Entry O=c1[nH]c(NCc2ccc(Cl)c(Cl)c2)nc2ncn(CCCCCN3CCOCC3)c12 [Compound 359E] : reported MIC = ?
*A* 8
